- System: HL-60
- RUN DESCRIPTION: NCI tumour cell line growth inhibition, 48 h
Calls of active or inactive are those of the source. Rule as the data show it: active = GI50 up to about 1.1 µM and inactive = higher.
Log the outcome using a class from active, inactive

[[record]]
molecule = "CCN1C(c2ccccc2)=CC(c2ccccc2)(C(Cl)(Cl)Cl)C=C1c1ccccc1"
group = "active"

[[record]]
molecule = "CCCCOC(=O)NC(Nc1ccc(S(N)(=O)=O)cc1)(C(F)(F)F)C(F)(F)F"
group = "inactive"

[[record]]
molecule = "O=C(OC1=CCN(Br)C1=O)C1=C(O)C(=O)N(Br)C1"
group = "inactive"

[[record]]
molecule = "COc1cccc(C2SCC(=O)N2c2ccc(-n3c(-c4ccccc4)nc4ccccc4c3=O)cc2)c1OC (stereo unspecified)"
group = "inactive"

[[record]]
molecule = "Brc1cccc[n+]1-c1ccc2cc(-[n+]3ccccc3Br)ccc2c1"
group = "inactive"


# outcome recorded in this test, key = OCC1NC(COC2OC(CO)C(O)C(O)C2O)C(O)C(O)C1O (stereo unspecified)
inactive

# outcome recorded in this test, key = C=C(C)C1CC[C@]2(C(=O)O)CCC3(C)[C@H](CCC4[C@@]5(C)CC[C@H](OC6OC(CO)C(O)C6OC6OC(C)C(O)C(O)C6O)[C@@](C)(CO)C5CC[C@]43C)C12 (stereo partly specified)
inactive

# outcome recorded in this test, key = CCCCN(CC)c1nc(C)nc2c1c(C)c(C)n2-c1c(C)cc(C)cc1C
inactive

# outcome recorded in this test, key = COc1ccc(C2=C3c4cc(OC)c(OC)cc4CCN3C(=S)SS2)cc1OC
inactive

# outcome recorded in this test, key = O=C(O)CSc1nnc(COc2ccc(Cl)cc2)n1-c1ccccc1
inactive

# outcome recorded in this test, key = Cc1c(CCl)c(=O)oc2c(C)c3occ(CCl)c(=O)c3cc12
inactive
